System: LOX IMVI melanoma
test.details: NCI-60 one-dose screen, 48 h
condition: 10 µM unless noted
This is part of a sample that, as a whole, favours compounds with a hit. Of some 83,000 tested, about 20% had one in any assay. Active and inactive are the calls of the source. The calls were made as follows: active = growth percent below 10; inactive = the rest.
Parameter call: string, one of active, inactive

// known answers, use as guide
I would be grateful if you could indicate the recorded call for CC(C)(C)c1nn(-c2ccccc2)c2c1CC1(CN2Cc2ccc3c(c2)OCO3)C(=O)c2ccccc2C1=O .
inactive

I would be grateful if you could indicate the recorded call for CC(=O)OCC(=O)C1CCC=CC1OC(C)=O (stereo unspecified) .
inactive

I would be grateful if you could indicate the recorded call for O=C(O)C(O)C(O)C(=O)O.[NH-]C1CCCCC1[NH-].[Pt+2] (stereo unspecified) .
inactive

I would be grateful if you could indicate the recorded call for CN(C)CCCC(=O)Nc1ccc(Cn2nnc3c2C(=O)c2nnn(Cc4ccc(NC(=O)CCCN(C)C)cc4)c2C3=O)cc1 .
active

I would be grateful if you could indicate the recorded call for OC(c1cccc(C(F)(F)F)c1)c1cnccc1NC1CCCCCC1 (stereo unspecified) .
active

I would be grateful if you could indicate the recorded call for C=C1C(=O)O[C@H]2[C@H]1CC/C(Cn1cc(Cn3ccc4ccccc43)nn1)=C\CC[C@@]1(C)O[C@@H]21 .
active

I would be grateful if you could indicate the recorded call for O=C(Cn1cc(CN2C(=O)c3ccccc3S2(=O)=O)nn1)Nc1ccc([N+](=O)[O-])cc1Cl .
inactive

I would be grateful if you could indicate the recorded call for COc1ccc(CN2C(=O)/C(=C\c3cc(OC)c(OC)c(OC)c3)c3cc(OC)ccc32)cc1 .
active

I would be grateful if you could indicate the recorded call for CN(C)c1ccc(/C=C(\C#N)c2nc3ccccc3s2)cc1 .
inactive

I would be grateful if you could indicate the recorded call for CCN(CC)C12CCCCC1(C)C(C#N)(C#N)C(C#N)=C(N)O2 (stereo unspecified) .
inactive

Further cases:
I would be grateful if you could indicate the recorded call for Brc1cccc(-c2cc(-c3ccc4c(c3)OCCO4)[nH]n2)c1 .
inactive

I would be grateful if you could indicate the recorded call for Cc1ccc(/C=C2\Oc3cc(OCC(=O)c4ccc(Cl)cc4)ccc3C2=O)cc1 .
inactive

I would be grateful if you could indicate the recorded call for C/C(Cc1ccc(Cl)cc1)=C(\c1ccc(OCCN2CCCCCC2)cc1)c1ccc(OC(=O)C2CCCCC2)cc1 .
inactive

I would be grateful if you could indicate the recorded call for C[C@]12C[C@@H](c3ccoc3)OC(=O)[C@@H]1CC[C@]1(C)[C@@H]2CC[C@@H](O)[C@]1(C)O .
inactive

I would be grateful if you could indicate the recorded call for CCCCOc1ccc(NC(=O)n2nc(NC(C)=O)c3cc(NC(C)=O)ccc32)cc1 .
inactive

I would be grateful if you could indicate the recorded call for Nc1ccc(Nc2nccc(-c3ccc4ccccc4c3)n2)cc1 .
inactive

###

Entries and their growth
Tested on: OVCAR-5 ovarian
test.details: NCI-60 one-dose screen, 48 h (100 = growth as untreated, 0 = no growth, -100 = all killed)
condition: 10 µM unless noted
This is part of a sample that, as a whole, favours compounds with a hit. Of some 83,000 tested, about 20% had one in any assay.
Write down the numeric answer in % and omit the unit.

Looking up Cc1cc2cc3cc(C)c(N(C)C)cc3[n+](C)c2cc1N(C)C , I see its growth listed as 63.4

Looking up COc1cc(OC)c(/C=C/S(=O)(=O)Cc2ccc(OC)c(N)n2)c(OC)c1 , I see its growth listed as 50.5

Further cases:
Looking up COc1ccc(C(=O)c2sc3nc4c(cc3c2N)CCCC4)cc1OC , I see its growth listed as 86.9
